Target: T1, human neuropeptide Y2 (NPY2) receptor (human, UniProt P49146 1-381)
T1 sequence (looked up): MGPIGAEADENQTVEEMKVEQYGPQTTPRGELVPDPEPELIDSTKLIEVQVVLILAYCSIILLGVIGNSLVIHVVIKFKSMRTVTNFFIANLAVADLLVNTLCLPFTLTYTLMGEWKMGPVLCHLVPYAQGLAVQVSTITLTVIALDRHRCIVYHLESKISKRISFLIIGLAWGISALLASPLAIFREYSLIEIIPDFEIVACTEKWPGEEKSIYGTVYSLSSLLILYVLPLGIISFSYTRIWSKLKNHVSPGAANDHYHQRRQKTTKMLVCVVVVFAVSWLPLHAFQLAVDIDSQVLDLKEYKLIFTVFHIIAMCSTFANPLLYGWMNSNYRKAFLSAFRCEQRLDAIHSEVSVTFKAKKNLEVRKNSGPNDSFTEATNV
Assay: cell-based or functional assay
Starred links: 1 amine or outer side, 2 acyl side, 3 side chain; linkers in the order of their positions; H or OH if unused. Non-standard residues stand in square brackets, D forms with d. Groups on a side chain read outwards from the residue. No end group written: not given here. *: point of attachment. C20 diacid = O=C(O)CCCCCCCCCCCCCCCCCCC(=O)*; C18 diacid = O=C(O)CCCCCCCCCCCCCCCCC(=O)*; γGlu = O=C(O)[C@H](CCC(=O)[*:2])N[*:1]; εLys = N[C@@H](CCCCN[*:1])C(=O)[*:2]; AEEA = NCCOCCOCC(=O)O; Aib = CC(C)(N)C(=O)O
Could you please report measured EC50, CreLuc assay, 0.5% hP for the items listed next?
Write it as a number; the unit nM goes unstated.

Quick one: EC50, CreLuc assay, 0.5% hP of YXEGTFTSDYSIXLEEQAQXAFVEWLIKGGPSSGQSLRHYYNWLTRQRY (Aib at 2, 13, 20; K28 side chain: C20DA-gGlu-gGlu-gGlu-gGlu-gGlu-gGlu-eLys; C-terminal NH2) [Compound 31] ?
13.4

Quick one: EC50, CreLuc assay, 0.5% hP of YXEGTFTSDYSIXLEKQAQXAFVEWLIKGGPSSGASXRHYXNRXTRQRY (Aib at 2, 13, 20, 37, 41, 44; K28 side chain: C20DA-gGlu-gGlu-gGlu-gGlu-gGlu-gGlu-eLys; C-terminal NH2) [Compound 4] ?
66.4

Quick one: EC50, CreLuc assay, 0.5% hP of Y[Aib]EGTFTSDYSI[Aib]LEKQAQ[Aib]AFVQWLIK([εLys-Glu-γGlu-γGlu-γGlu-γGlu-C20 diacid])GGPEYYASLRHYYNWLTRQRY-NH2 (also: TFA salt) [Compound 23] ?
10.1

Quick one: EC50, CreLuc assay, 0.5% hP of Y[Aib]EGTFTSDYSI[Aib]LEKQAQ[Aib]EFVEWLIK([AEEA-AEEA-γGlu-γGlu-γGlu-γGlu-C18 diacid])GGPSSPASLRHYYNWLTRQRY-NH2 (also: TFA salt) [Compound 56] ?
27.2

Origin of the recorded values: patent US20240247080A1
